Values from ChEMBL document CHEMBL2218924

Target: Dual specificity mitogen-activated protein kinase kinase 6 (Homo sapiens) (UniProt P52564)
Sequence (whole entry): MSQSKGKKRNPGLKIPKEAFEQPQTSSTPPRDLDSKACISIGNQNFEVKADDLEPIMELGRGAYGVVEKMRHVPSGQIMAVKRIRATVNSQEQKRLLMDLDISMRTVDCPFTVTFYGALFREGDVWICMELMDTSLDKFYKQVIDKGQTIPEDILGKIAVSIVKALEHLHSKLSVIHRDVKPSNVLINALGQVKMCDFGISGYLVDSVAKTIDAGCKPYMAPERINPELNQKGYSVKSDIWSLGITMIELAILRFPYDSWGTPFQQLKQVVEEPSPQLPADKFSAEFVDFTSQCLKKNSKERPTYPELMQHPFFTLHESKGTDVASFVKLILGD
Conditions: at 1 µM
For each record, write down the corresponding residual activity.
Note: unit % is implicit; provide only the numeric part.

stdin: Please give the measured residual activity for this compound: COc1cc2ncnc(Nc3ccc(OCc4ccccc4)cc3)c2cc1OC
stdout: 90

stdin: Please give the measured residual activity for this compound: CC(C)[C@H](CO)Nc1nc(Nc2cccc(Cl)c2)c2ncn(C(C)C)c2n1
stdout: 97

stdin: Please give the measured residual activity for this compound: COc1cc(OC)c(/C=C2\C(=O)Nc3ccccc32)c(OC)c1
stdout: 105

stdin: Please give the measured residual activity for this compound: CCn1cnc2c(Nc3cccc(Cl)c3)nc(N[C@@H]3CCCC[C@@H]3N)nc21
stdout: 99

* * *

target: Cyclin-dependent kinase 2/cyclin A (Homo sapiens) (UniProt P24941+P20248+P78396); settings: at 1 µM
For each record, write down the corresponding residual activity.

stdin: Please give the measured residual activity for this compound: COc1cc2ncnc(Nc3ccc(OCc4ccccc4)cc3)c2cc1OC
stdout: 110%

stdin: Please give the measured residual activity for this compound: O=C1Nc2ccc3ncsc3c2/C1=C/c1c[nH]cn1
stdout: 1%

stdin: Please give the measured residual activity for this compound: O=C1c2ccccc2-c2nc3nnnn3nc21
stdout: 145%

stdin: Please give the measured residual activity for this compound: O=C1NC(=O)c2c1c1c3ccccc3n3c1c1c2c2ccccc2n1C1CCC3O1
stdout: 67%

stdin: Please give the measured residual activity for this compound: CC(C)[C@H](CO)Nc1nc(Nc2cccc(Cl)c2)c2ncn(C(C)C)c2n1
stdout: 3%

stdin: Please give the measured residual activity for this compound: COC(=O)[C@@]1(O)C[C@H]2O[C@]1(C)n1c3ccccc3c3c4c(c5c6ccccc6n2c5c31)C(=O)NC4
stdout: 1%

stdin: Please give the measured residual activity for this compound: O=[N+]([O-])/C=C/c1ccc2c(c1)OCO2
stdout: 130%

* * *

biological target: Ephrin type-B receptor 2 (Homo sapiens); settings: at 1 µM
READOUT_KIND: residual activity (%)
Note: unit % is implicit; provide only the numeric part.

stdin: Please give the measured residual activity for this molecule: O=[N+]([O-])/C=C/c1ccc2c(c1)OCO2
stdout: 116

stdin: Please give the measured residual activity for this molecule: COC(=O)[C@@]1(O)C[C@H]2O[C@]1(C)n1c3ccccc3c3c4c(c5c6ccccc6n2c5c31)C(=O)NC4
stdout: 114

stdin: Please give the measured residual activity for this molecule: CCn1cnc2c(Nc3cccc(Cl)c3)nc(N[C@@H]3CCCC[C@@H]3N)nc21
stdout: 56

stdin: Please give the measured residual activity for this molecule: CCc1nc(-c2ccc(OC)cc2)[nH]c1-c1ccncc1
stdout: 120

stdin: Please give the measured residual activity for this molecule: C[S+]([O-])c1ccc(-c2nc(-c3ccc(F)cc3)c(-c3ccncc3)[nH]2)cc1 (stereo not given)
stdout: 101

stdin: Please give the measured residual activity for this molecule: COc1ccc2c(c[n+](C)c3c4cc5c(cc4ccc23)OCO5)c1OC
stdout: 121

stdin: Please give the measured residual activity for this molecule: CC(C)(C)c1cc(C=C(C#N)C#N)cc(Br)c1O
stdout: 116

stdin: Please give the measured residual activity for this molecule: O=C1Nc2ccc3ncsc3c2/C1=C/c1c[nH]cn1
stdout: 87

stdin: Please give the measured residual activity for this molecule: COc1cc2ncnc(Nc3ccc(OCc4ccccc4)cc3)c2cc1OC
stdout: 118

stdin: Please give the measured residual activity for this molecule: c1cc(-c2cnn3cc(-c4ccc(OCCN5CCCCC5)cc4)cnc23)ccn1
stdout: 25

* * *

target: Vascular endothelial growth factor receptor 2 (Homo sapiens) (UniProt P35968); settings: at 10 µM
Sequence (P35968 whole entry): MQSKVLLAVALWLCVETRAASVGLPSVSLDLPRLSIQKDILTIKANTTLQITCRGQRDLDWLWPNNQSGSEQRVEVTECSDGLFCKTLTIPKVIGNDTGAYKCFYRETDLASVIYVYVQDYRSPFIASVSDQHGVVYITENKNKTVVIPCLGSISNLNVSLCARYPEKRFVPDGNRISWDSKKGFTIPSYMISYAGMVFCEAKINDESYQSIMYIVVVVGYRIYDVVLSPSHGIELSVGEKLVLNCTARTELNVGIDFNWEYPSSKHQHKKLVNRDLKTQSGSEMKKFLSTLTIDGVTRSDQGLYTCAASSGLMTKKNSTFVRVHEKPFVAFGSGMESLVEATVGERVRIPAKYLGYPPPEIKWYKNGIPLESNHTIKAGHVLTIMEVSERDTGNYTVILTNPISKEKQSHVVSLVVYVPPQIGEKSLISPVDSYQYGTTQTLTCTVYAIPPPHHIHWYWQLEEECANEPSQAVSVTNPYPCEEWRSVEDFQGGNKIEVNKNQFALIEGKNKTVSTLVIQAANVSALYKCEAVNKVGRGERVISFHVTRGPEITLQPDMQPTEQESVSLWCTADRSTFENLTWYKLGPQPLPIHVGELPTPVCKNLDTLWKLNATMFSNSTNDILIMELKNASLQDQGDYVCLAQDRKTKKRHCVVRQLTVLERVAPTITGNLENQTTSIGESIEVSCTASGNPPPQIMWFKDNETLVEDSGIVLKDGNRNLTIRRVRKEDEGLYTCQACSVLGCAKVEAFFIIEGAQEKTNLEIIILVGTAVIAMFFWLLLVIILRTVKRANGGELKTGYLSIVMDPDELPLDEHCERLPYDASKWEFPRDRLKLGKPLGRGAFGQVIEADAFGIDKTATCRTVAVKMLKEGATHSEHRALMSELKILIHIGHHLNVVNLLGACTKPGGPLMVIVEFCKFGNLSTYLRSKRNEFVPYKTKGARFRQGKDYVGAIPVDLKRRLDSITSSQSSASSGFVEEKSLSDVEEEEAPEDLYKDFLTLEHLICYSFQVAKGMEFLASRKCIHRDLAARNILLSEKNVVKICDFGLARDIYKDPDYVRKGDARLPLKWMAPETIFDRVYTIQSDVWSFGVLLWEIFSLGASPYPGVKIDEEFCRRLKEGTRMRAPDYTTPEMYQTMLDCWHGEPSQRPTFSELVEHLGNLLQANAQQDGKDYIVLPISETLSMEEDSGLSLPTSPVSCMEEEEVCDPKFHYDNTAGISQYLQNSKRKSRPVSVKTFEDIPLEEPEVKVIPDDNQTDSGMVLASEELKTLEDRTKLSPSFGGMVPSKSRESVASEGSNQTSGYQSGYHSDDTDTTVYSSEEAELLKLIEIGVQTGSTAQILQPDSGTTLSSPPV
READOUT_KIND: residual activity (%)
Note: unit % is implicit; provide only the numeric part.

stdin: Please give the measured residual activity for this compound: C[S+]([O-])c1ccc(-c2nc(-c3ccc(F)cc3)c(-c3ccncc3)[nH]2)cc1 (stereo unspecified)
stdout: 60

stdin: Please give the measured residual activity for this compound: O=c1[nH]c2ccccc2n1C1CCN(Cc2ccc(-c3nc4cc5[nH]cnc5cc4nc3-c3ccccc3)cc2)CC1
stdout: 90

stdin: Please give the measured residual activity for this compound: COc1ccc2c(c1)/C(=C/c1cnc[nH]1)C(=O)N2
stdout: 3

stdin: Please give the measured residual activity for this compound: CC(C)[C@H](CO)Nc1nc(Nc2cccc(Cl)c2)c2ncn(C(C)C)c2n1
stdout: 58

stdin: Please give the measured residual activity for this compound: O=C1c2ccccc2-c2nc3nnnn3nc21
stdout: 104

stdin: Please give the measured residual activity for this compound: O=C1NC(=O)c2c1c1c3ccccc3n3c1c1c2c2ccccc2n1C1CCC3O1
stdout: 18

stdin: Please give the measured residual activity for this compound: CC(C)(C)c1cc(C=C(C#N)C#N)cc(Br)c1O
stdout: 83

stdin: Please give the measured residual activity for this compound: CCn1cnc2c(Nc3cccc(Cl)c3)nc(N[C@@H]3CCCC[C@@H]3N)nc21
stdout: 45

stdin: Please give the measured residual activity for this compound: COC(=O)[C@@]1(O)C[C@H]2O[C@]1(C)n1c3ccccc3c3c4c(c5c6ccccc6n2c5c31)C(=O)NC4
stdout: 0

stdin: Please give the measured residual activity for this compound: O=C1Nc2ccc3ncsc3c2/C1=C/c1c[nH]cn1
stdout: 0

stdin: Please give the measured residual activity for this compound: COc1cc(OC)c(/C=C2\C(=O)Nc3ccccc32)c(OC)c1
stdout: 91

* * *

For each record, write down the corresponding residual activity.
target: Serine/threonine-protein kinase haspin (Homo sapiens) (UniProt Q8TF76); conditions: at 1 µM
Sequence (Q8TF76 whole entry): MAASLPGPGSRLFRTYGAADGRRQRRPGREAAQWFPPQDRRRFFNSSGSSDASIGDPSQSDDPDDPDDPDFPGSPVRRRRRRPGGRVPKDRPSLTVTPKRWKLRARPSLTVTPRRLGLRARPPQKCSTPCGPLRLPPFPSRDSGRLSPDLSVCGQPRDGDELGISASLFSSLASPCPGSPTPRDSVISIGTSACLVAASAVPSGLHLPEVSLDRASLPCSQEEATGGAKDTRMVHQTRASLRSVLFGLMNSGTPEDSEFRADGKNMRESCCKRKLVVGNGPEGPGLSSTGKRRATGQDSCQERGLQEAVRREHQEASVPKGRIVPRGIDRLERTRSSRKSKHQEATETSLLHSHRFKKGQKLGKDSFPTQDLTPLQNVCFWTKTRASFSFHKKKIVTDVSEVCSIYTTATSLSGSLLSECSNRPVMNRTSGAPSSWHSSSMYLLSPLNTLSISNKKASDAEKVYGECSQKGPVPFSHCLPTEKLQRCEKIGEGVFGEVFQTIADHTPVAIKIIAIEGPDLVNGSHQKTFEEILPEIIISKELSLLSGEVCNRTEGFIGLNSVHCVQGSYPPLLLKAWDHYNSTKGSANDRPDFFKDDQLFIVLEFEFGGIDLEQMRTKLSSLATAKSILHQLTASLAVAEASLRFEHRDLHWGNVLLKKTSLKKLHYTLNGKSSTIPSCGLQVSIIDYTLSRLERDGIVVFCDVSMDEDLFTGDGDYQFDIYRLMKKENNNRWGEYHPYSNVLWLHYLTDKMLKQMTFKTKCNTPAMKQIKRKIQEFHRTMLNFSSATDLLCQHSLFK
Answer by giving the amount and then stating its unit.

stdin: Please give the measured residual activity for this compound: O=C1Nc2ccc3ncsc3c2/C1=C/c1c[nH]cn1
stdout: 3%

stdin: Please give the measured residual activity for this compound: C[S+]([O-])c1ccc(-c2nc(-c3ccc(F)cc3)c(-c3ccncc3)[nH]2)cc1 (stereo unspecified)
stdout: 88%

stdin: Please give the measured residual activity for this compound: COc1cc(OC)c(/C=C2\C(=O)Nc3ccccc32)c(OC)c1
stdout: 70%

stdin: Please give the measured residual activity for this compound: CCc1nc(-c2ccc(OC)cc2)[nH]c1-c1ccncc1
stdout: 45%

stdin: Please give the measured residual activity for this compound: CC(C)[C@H](CO)Nc1nc(Nc2cccc(Cl)c2)c2ncn(C(C)C)c2n1
stdout: 100%

stdin: Please give the measured residual activity for this compound: CCn1cnc2c(Nc3cccc(Cl)c3)nc(N[C@@H]3CCCC[C@@H]3N)nc21
stdout: 48%

* * *

For each record, write down the corresponding residual activity.
Biological target: Serine/threonine-protein kinase Nek3 (Homo sapiens) (UniProt P51956);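 further: residual NEK3 kinase activity given as percent of control, assayed in 8 mM MOPS buffer pH 7.0 containing 0.2 mM EDTA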
Sequence (whole entry): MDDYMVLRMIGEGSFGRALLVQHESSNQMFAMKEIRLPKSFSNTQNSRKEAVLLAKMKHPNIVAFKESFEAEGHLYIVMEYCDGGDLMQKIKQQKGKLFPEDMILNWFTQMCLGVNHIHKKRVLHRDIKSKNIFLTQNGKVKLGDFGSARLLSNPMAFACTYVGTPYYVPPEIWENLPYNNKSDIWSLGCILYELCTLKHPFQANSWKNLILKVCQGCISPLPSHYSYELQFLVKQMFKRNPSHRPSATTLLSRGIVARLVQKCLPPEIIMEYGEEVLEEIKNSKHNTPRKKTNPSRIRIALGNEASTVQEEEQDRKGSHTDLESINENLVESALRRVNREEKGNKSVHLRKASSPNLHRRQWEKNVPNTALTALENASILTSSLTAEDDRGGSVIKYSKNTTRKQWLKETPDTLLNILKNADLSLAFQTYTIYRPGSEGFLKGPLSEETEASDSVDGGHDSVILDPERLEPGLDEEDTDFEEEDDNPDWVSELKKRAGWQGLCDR
Details: at 1 µM
Description: Millipore: Percentage of residual kinase activity of NEK3 at 1uM relative to control. Control inhibitor: Phosphoric acid* at 0.3uM. Buffer: 8 mM MOPS pH 7.0, 0.2 mM EDTA
Note: unit % is implicit; provide only the numeric part.

stdin: Please give the measured residual activity for this molecule: COc1cc(OC)c(/C=C2\C(=O)Nc3ccccc32)c(OC)c1
stdout: 80

stdin: Please give the measured residual activity for this molecule: COC(=O)[C@@]1(O)C[C@H]2O[C@]1(C)n1c3ccccc3c3c4c(c5c6ccccc6n2c5c31)C(=O)NC4
stdout: 65

stdin: Please give the measured residual activity for this molecule: COc1cc2ncnc(Nc3ccc(OCc4ccccc4)cc3)c2cc1OC
stdout: 90

stdin: Please give the measured residual activity for this molecule: O=C1Nc2ccc3ncsc3c2/C1=C/c1c[nH]cn1
stdout: 102

stdin: Please give the measured residual activity for this molecule: N/C(=N\[N+](=O)[O-])N/N=C\c1ccc(-c2cccc([N+](=O)[O-])c2)o1
stdout: 74

stdin: Please give the measured residual activity for this molecule: CN[C@@H]1C[C@H]2O[C@@](C)([C@@H]1OC)n1c3ccccc3c3c4c(c5c6ccccc6n2c5c31)C(=O)NC4
stdout: 105

stdin: Please give the measured residual activity for this molecule: CC(C)(C)c1cc(C=C(C#N)C#N)cc(Br)c1O
stdout: 115
